So I've got a bunch of compounds here, and I need their Plant response rating, Panicum, Fall values.
Tested on: panicum, fall (fall panicum, Panicum dichotomiflorum)
Assay: Test E greenhouse herbicide test, pre- and postemergence
Format: in vivo
Conditions: 125 g ai/ha, Preemergence; scale 0 to 100 (0 no effect, 100 complete control)
Answers are plain numbers.

Field: example entries. Status: answers known.
GET /value?item= Cc1ccc2sc(C)c(-c3c(O)c(C)nn(C)c3=O)c2c1 &field=Plant response rating, Panicum, Fall returns 95

response.value for CC(=O)Oc1c(C)nn(C)c(=O)c1-c1c(C)sc2ccc(C)cc12 (field: Plant response rating, Panicum, Fall) = 100

So, CC(=O)Oc1c(C)nn(C)c(=O)c1-c1c(C)sc2c(C)cc(C)cc12 ? Its Plant response rating, Panicum, Fall was 100

Now for another entry.
Looking up Cc1ccc2ccccc2c1-c1c(O)c(C)nn(C)c1=O , I see its Plant response rating, Panicum, Fall listed as 100
